- TEST_TARGET: Peroxisome proliferator-activated receptor alpha (Homo sapiens)
- Sequence (Q07869 whole entry): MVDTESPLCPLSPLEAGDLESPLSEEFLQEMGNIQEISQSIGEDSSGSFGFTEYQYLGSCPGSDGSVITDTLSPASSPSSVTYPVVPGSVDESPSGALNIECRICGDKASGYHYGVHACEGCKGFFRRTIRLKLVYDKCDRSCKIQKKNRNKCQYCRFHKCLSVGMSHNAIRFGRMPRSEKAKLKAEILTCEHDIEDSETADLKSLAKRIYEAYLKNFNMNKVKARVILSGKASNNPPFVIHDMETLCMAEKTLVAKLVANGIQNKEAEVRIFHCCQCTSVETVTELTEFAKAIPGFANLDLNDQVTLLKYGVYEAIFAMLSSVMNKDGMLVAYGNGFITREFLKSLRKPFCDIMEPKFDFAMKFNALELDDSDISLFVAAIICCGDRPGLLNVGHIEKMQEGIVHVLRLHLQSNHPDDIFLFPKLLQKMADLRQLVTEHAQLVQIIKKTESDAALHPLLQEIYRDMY
EXPERIMENTAL_ENDPOINT: IC50 (nM)

[P] CCC(C)(C)c1ccc(OCCCOc2ccc3c(c2)O[C@@](C)(C(=O)O)CC3)c(Cl)c1
[Q] CC[C@]1(C(=O)O)CCc2ccc(OCCCOc3ccc(C(C)(C)C)cc3Cl)cc2O1
[R] CCOc1ccc(OCCCOc2ccc3c(c2)O[C@@](C)(C(=O)O)CC3)c(Cl)c1
[S] COc1ccc(OCCCOc2ccc3c(c2)O[C@@](C)(C(=O)O)CC3)c(Cl)c1
// query // rank above by IC50: first = highest number Write the labels out in the order the request specifies.
// result S, R, Q, P
(S: 3900 nM, R: 1380 nM, Q: 180 nM, P: 7 nM)
